B1: tRNA (parent)
chain: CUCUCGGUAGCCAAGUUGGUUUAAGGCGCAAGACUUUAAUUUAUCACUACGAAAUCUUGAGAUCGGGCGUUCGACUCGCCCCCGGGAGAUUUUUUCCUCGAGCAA

# Variants of: B1
# Procedure Text: nonsense suppression (GFP-seq) (ratio to wild type); higher = more function; SUP4oc tRNA, yeast GFP reporter sort-seq
This sample holds only a part of the variants without activity.
Recorded nonsense suppression, one value per entry.
// print number alone

Seq Text	nonsense suppression
CUCUCGGUAGCCCAGUGGGUUUAAGGCGCAAGACUUUAAUUUAUCACUACGAAAUCUUGAGAUCGGGCGUUCGACUCGCCCCCGGGAGAUUUUUUCCUCGAGCAA [A13C U17G]	0.958
CUCGCGGUAGCCAAGUUGGUUUAAGGCGCAAGACUUUAAUUUAUCACUACGAAAUCUUGAGAUCGGGCGUUCGACUUGCCCCCGGGAGAUUUUUUCCUCGAGCAA [U4G C77U]	0.0723
CUCUCGGUCGCCUAGUUGGUUUAAGGCGCAAGACUUUAAUUUAUCACUACGAAAUCUUGUGAUCGGGCGUUCGACUCGCCCCCGGGAGAUUUUUUCCUCGAGCAA [A9C A13U A60U]	1.16
CUCUCGGUAGCCAAGUUGGUUUAAGGCGCAAGACUUUAAUUUAUCACUACGAAACCUUGAGAUCGGGCGUUCGACUCGCCCCCGGAAGAUUUUUUCCUCGAGCAA [U55C G86A]	0.0315
CUCUCGGUAGCCAAGUUGGUUUAAGGCGCAAGACUUUAAUUUAUCACUACGAAAUCUUGAGAUCGGGCGUUCGACUCGCCCUCGAGAGAUUUUUUCCUCGAGCAA [C82U G85A]	0.99

Return value of nonsense suppression for input CUCUCGGUAGCCAAGUUGGUUUAAGGCGCAAGACUUUAAUUUAUCACUACGAAAUCUUGAGAUCGGACGUUCGUCUCGCCCCCGGGAGAUUUUUUCCUCGAGCAA [G67A A74U] , no commentary. 0.0276

Annotate the variant CUCUCGGUAGCCAAGUUGGUUUAAGGCGCAAGACUUUAAUUUAUCACUACGAAUUCUUGAGAACGGGCGUUCGACUCGCCCCCGGGAGAUUUUUUCCUCGAGCAA [A54U U63A] with its measured nonsense suppression. 0.864
